Target: T1, AFP158/HLA-A*02:01 complex (human)
T1 construct: flowed as analyte in SPR
Assay: SPR, fold vs AS170036 VL1VH1;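 also: crude scFv muteins immobilised on a sensor chip, peptide–MHC complex passed over at several concentrations, binding then buffer-driven dissociation, KD estimated from on- and off-rates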
observed-property: Affinity increase (fold)
Report the value in fold with no unit label.

See these solved cases before continuing.
>  <binder>
AS170036 VL1VH1-57H98F108D (scFv, also called 59-AS170036 VL1VH1-57H98F108D) scFv: QSALTQPRSVSGSPGQSVTISCAGTSSDVGSENYVSWYQQHPGKAPKLMIYQVNKRASGVPDRFSGSKSGNTASLTISGLQAEDEADYYCASYRSSDFNIVFGGGTKLTVLGGGGSGGGGSGGGGSEVQLVESGGGLVQPGGSLRLSCAASGFTFSSYAMSWVRQAPGKGLEWVSTINSGTGHPYYADSVKGRFTISRDNSKNTLYLQMNSLRAEDTAVYYCAKNFFDGSWFLDPPAMDYWGQGTLVTVSSHHHHHH

>  <Affinity increase / fold>
124

$$$$
>  <binder>
AS170036 VL1VH1-57K98F108D (scFv, also called 68-AS170036 VL1VH1-57K98F108D) scFv: QSALTQPRSVSGSPGQSVTISCAGTSSDVGSENYVSWYQQHPGKAPKLMIYQVNKRASGVPDRFSGSKSGNTASLTISGLQAEDEADYYCASYRSSDFNIVFGGGTKLTVLGGGGSGGGGSGGGGSEVQLVESGGGLVQPGGSLRLSCAASGFTFSSYAMSWVRQAPGKGLEWVSTINSGTGKPYYADSVKGRFTISRDNSKNTLYLQMNSLRAEDTAVYYCAKNFFDGSWFLDPPAMDYWGQGTLVTVSSHHHHHH

>  <Affinity increase / fold>
54.5

$$$$

Consider now this further binder.
In: Query (binder): AS170036 VL1VH1-57K98I108S (scFv, also called 72-AS170036 VL1VH1-57K98I108S) scFv: QSALTQPRSVSGSPGQSVTISCAGTSSDVGSENYVSWYQQHPGKAPKLMIYQVNKRASGVPDRFSGSKSGNTASLTISGLQAEDEADYYCASYRSSDINIVFGGGTKLTVLGGGGSGGGGSGGGGSEVQLVESGGGLVQPGGSLRLSCAASGFTFSSYAMSWVRQAPGKGLEWVSTINSGTGKPYYADSVKGRFTISRDNSKNTLYLQMNSLRAEDTAVYYCAKNFFDGSWFLSPPAMDYWGQGTLVTVSSHHHHHH ; field requested: Affinity increase
Out: 21
